Every entry's value here was drawn from patent US20230295310A1.

# target_or_test_system: T1, human CD3e/d (human, UniProt P07766 23-126; P04234 22-105)
# T1 construct: Bought soluble protein; also called hCD3e/d; human CD3/ed (Sino CT038-H2508H)
# T1 sequence (P07766 23-126, chain 1 of 2): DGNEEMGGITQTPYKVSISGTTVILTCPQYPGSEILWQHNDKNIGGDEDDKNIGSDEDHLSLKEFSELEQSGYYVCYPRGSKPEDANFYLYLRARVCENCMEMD
# T1 sequence (P04234 22-105, chain 2 of 2): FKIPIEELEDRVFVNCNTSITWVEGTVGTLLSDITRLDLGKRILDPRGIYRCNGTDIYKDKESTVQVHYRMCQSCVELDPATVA
# experiment: SPR (Carterra LSA), mAb on chip
# Experimental: High-throughput surface plasmon resonance (SPR) coupled kinetic experiments were performed on a Carterra LSA® instrument equipped with an HC-30M chip type (Carterra, USA). The instrument uses two microfluidic modules, a single-flow cell (SFC) and a 96 printhead, to deliver samples to the chip surface via back-and-forth cycling of a fixed sample volume. […] The data were analyzed using the Carterra Kinetics analysis software. […]
Each entry below lists one item and its recorded Kd value.

| binder | experimental_readout | recorded_result |
| --- | --- | --- |
| mAb 198 (antibody, V domains shown, VH and VL only) VH: QVQLVESGGGVVQPGGSLRLSCAASGFTFSGYGMHWVRQAPGKGLEWVAIIWYNGRKTYYAESVKGRFTISRDNSKNTLSLQMNSLRIEDTAVYYCTTGQGYNWFDPWGQGTLVTVSS VL: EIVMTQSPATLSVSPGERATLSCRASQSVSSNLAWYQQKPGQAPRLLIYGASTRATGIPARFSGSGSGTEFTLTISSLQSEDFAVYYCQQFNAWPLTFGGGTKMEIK | Kd | 41 nM |
| mAb 127 (antibody, V domains shown, VH and VL only) VH: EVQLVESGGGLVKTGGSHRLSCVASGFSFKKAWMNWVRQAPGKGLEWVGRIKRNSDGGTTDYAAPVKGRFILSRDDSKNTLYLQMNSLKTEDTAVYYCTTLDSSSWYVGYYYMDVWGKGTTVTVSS VL: DIQMTQSPSSVSASVGDRVTITCRASQDINNWLAWYQQKPGKAPKILIYTASNLQSGVPSRFSGSGSGTDFTLTISTLQPEDFATYFCQQAHGLPITFGQGTRLEIK | Kd | 65 nM |

// switching to the query binder
Give the measured Kd of mAb 171 (antibody, V domains shown, VH and VL only) VH: EVQLVESGGGLVQPGRSLRLSCAASGFTFADYTMHWVRQAPGQGLEWVSGISWNSGSIDYADSVKGRFIISRDNAKKTLYLQMNSLRAEDTALYYCAKDSSGYGHYYFYYLDVWGKGTTVTVSS VL: EIVMTQSPATLSVSPGERATLSCRASQSVSSNLAWYQQKPGQAPRLLIYSTSTRATGIPARFSGSRSGTEFTLTISSLQSEDSAVYYCQQYNNWPHFGQGTRLEIK .
18.4 nM
